system: Mz-ChA-1 cholangiocarcinoma cells; assay: cells; settings: Homo sapiens, read-out: IC50 (CL), Mz-ChA-1, single 2 h exposure + 72 h recovery; combination with 50 µM β-caryophyllene
Structures can show the parent of a compound that is named as a salt.
assayReadout: IC50 (µM)
Report the figure in µM without appending any unit label.

response.value for COc1cccc2c1C(=O)c1c(O)c3c(c(O)c1C2=O)C[C@@](O)(C(=O)CO)C[C@@H]3O[C@H]1C[C@H](N)[C@H](O)[C@H](C)O1 [Doxorubicin, doxorubicin hydrochloride] (field: IC50) = 19.8

Please find the next compound below.
Entry C=C1CC/C=C(\C)CC[C@@H]2[C@@H]1CC2(C)C , IC50 reported as 172

All figures here come from paper PMC7226839.
